Origin of measurements: patent WO2018095428A1

kon reference
Target: T1, human CD47-his (Sino Biological, CAT#12283-HCCH-50) (human, UniProt Q08722 19-139, limits assumed)
T1 construct: Bought protein used as analyte in Biacore; also called 人CD47-his; human CD47-his antigen; not shown: His tag of the bought protein
T1 sequence (Q08722 19-139 limits assumed): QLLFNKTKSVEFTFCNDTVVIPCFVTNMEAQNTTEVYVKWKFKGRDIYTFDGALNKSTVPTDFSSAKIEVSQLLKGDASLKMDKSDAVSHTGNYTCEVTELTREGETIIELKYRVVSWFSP
Assay: SPR (Biacore): antibody captured with human Fab capture kit on CM5 chip, human CD47-his flowed over
Dear colleague, please return just the value in M⁻¹ s⁻¹, with no unit written.

Below, each entry is followed by its recorded kon result.
binder	kon (M⁻¹ s⁻¹)
hu167-1 (antibody, V domains shown) VH: QVQLVQSGAEVKKPGASVKVSCKASGYTFTSYWMHWVRQAPGQGLEWMGNIDPSDSETHYNQKFKDRVTMTRDTSISTAYMELSRLRSDDTAVYYCARWGYLGRSAMDYWGQGTTVTVSS VL: DIQMTQSPSSLSASVGDRVTITCRTSKSISKFLAWYQQKPGKAPKLLIYSGSTLQSGVPSRFSGSGSGTDFTLTISSLQPEDFATYYCQQHNEYPWTFGGGTKVEIK	1.49e+06
hu055-1 (antibody, V domains shown) VH: QVQLVQSGAEVKKPGASVKVSCKASGYTFTSSYLHWVRQAPGQRLEWMGWIYPESGNTKYNERFKGRVTITRDTSASTAYMELSSLRSEDTAVYYCARRGDVFFAYWGQGTTVTVSS VL: DIVMTQSPDSLAVSLGERATINCKSSQSLLTSGKQKNYLTWYQQKPGQPPKLLIYWASTRESGVPDRFSGSGSGTDFTLTISSLQAEDVAVYYCQNDYSYPLTFGQGTKLEIK	1.67e+06
hu055-8 (antibody, V domains shown) VH: QVQLVQSGAEVKKPGASVKVSCKASGYTFTSSYLHWVRQAPGQRLEWMGWIYPESGNTKYNERFKGRVTITRDTSASTAYMELSSLRSEDTAVYYCARRGDVFFAYWGQGTTVTVSS VL: DIVMTQSPDSLAVSLGERATINCKSSQSLLTSGKQKNYLTWYQQKPGQPPKLLIYWASTRESGVPERFSGSGSGTDFTLTISSLQAEDVAVYYCQNDYSYPLTFGQGTKLEIK	1.6e+06

Let us move to another entry and its kon.
Data request: State its kon for this binder: chimeric antibody ch-055 (antibody, V domains shown) VH: QVLLQQSGPELVQPGASVKISCKASGYSFTSSYLHWVKQRPGQGLDWIGWIYPESGNTKYNERFKGKATLTADTSSSTAYMQLSSLTSEDSAVYYCSRRGDVFFAYWGQGTTLTVSS VL: DIVMTQSPSYLTVTAGEKVTMSCKSSQSLLTSGKQKNYLTWYQQKPGQPPKLLIYWASTRESGVPERFRGSGSGTDFTLTISSVQAEDLAVYYCQNDYSYPLTFGAGTKLELN
Data returned: 2.32e+06
